experiment: Pharmacokinetic profile in rats, IV and PO; format: in vivo; conditions: rat, PO 2 mg/kg, Mean; read-out: C0/Cmax
reported_endpoint: Cmax (nM)
Note: unit nM is implicit; provide only the numeric part.

Enquiry: GET /values?readout=Cmax&item= CCCCCCCC(=O)C1=C2C=C3C=C(/C=C\C(=O)O)N([C@@H](CCC(=O)O)C(=O)O)C=C3C(=O)C2(C)OC1=O (stereo partly shown) [Atrorosin-E]
Return: 8.2

---

assay: Pharmacokinetic profile in rats, IV and PO; assay type: in vivo; conditions: rat, IV 2 mg/kg, Mean; read-out: C0/Cmax
reported_endpoint: Cmax (µM)
Note: unit µM is implicit; provide only the numeric part.

Enquiry: GET /values?readout=Cmax&item= CCCCCCCC(=O)C1=C2C=C3C=C(/C=C\C(=O)O)N([C@@H](CCC(=O)O)C(=O)O)C=C3C(=O)C2(C)OC1=O (stereo partly shown)
Return: 18.6

---

test: Pharmacokinetic profile in rats, IV and PO; type: in vivo; details: rat, IV 1 mg/kg, Mean; read-out: C0/Cmax
reported_endpoint: Cmax (µM)
Note: unit µM is implicit; provide only the numeric part.

Enquiry: GET /values?readout=Cmax&item= Cc1c(C(=O)O)c(O)cc2c1C(=O)c1c(O)c([C@@H]3O[C@H](CO)[C@@H](O)[C@H](O)[C@H]3O)c(O)c(O)c1C2=O [carminic acid, reference compound]
Return: 16.7

The origin of these recorded values is patent US20230279233A1.
